A collection of compounds and their measured Mean remainder of hair length (mm) 30th (day)
Test system: rabbits
Assay: Hair regeneration on depilated dorsum of rabbits, lotion applied once daily
Format: in vivo
Settings: 30th day after application; 1% in 50% aqueous ethanol with 2% propyleneglycol, pH 6.7; 1ml once every day; difference to untreated area
REPORTED ENDPOINT: Mean remainder of hair length (mm) 30th (day)

COMPOUND	ASSAYED TARGET	UNIT NAME	REPORTED VALUE
C[C@@H]1O[C@@H](OC[C@H]2O[C@@H](Oc3c(-c4ccc(O)c(O)c4)oc4cc(O)cc(O)c4c3=O)[C@H](O)[C@@H](O)[C@@H]2O)[C@H](O)[C@H](O)[C@H]1O [Rutin, reference compound]	rabbits	mm	0.5
O=C1O[C@H]([C@@H](O)CO)C(O)=C1O[C@H]1O[C@H](CO)[C@@H](O)[C@H](O)[C@H]1O [2-O-α-D-Glucosyl-L-ascorbic acid]	rabbits	mm	6.9
C[C@@H]1O[C@@H](O[C@H]2[C@H](Oc3cc(O)c4c(c3)O[C@H](c3ccc(O)cc3)CC4=O)O[C@H](CO)[C@@H](O)[C@@H]2O)[C@H](O)[C@H](O)[C@H]1O [Naringin, reference compound]	rabbits	mm	-0.2
COc1ccc(C2CC(=O)c3c(O)cc(OC4OC(COC5OC(C)C(O)C(O)C5O)C(O)C(O)C4O)cc3O2)cc1O (centres unmarked) [Hesperidin, reference compound]	rabbits	mm	0.2
O=C1O[C@H]([C@@H](O)CO)C(O)=C1O [L-Ascorbic acid, L-ascorbic acid, reference compound]	rabbits	mm	0.5
